# System: human MDR1 (P-gp)
# experimental protocol: Apparent permeability across pig LLC-PK1 cells transfected with human MDR1 at 5 uM in presence of 0.1% BSA
# Type: ADME, cell-based, Sus scrofa
reported metric: Papp at 5 µM (×10⁻⁶ cm/s)
Report the figure in ×10⁻⁶ cm/s without appending any unit label.

Tested on human MDR1 (P-gp): `Fc1ccc(-c2noc(C3CCN(c4cnc5ccc(Cl)cc5c4)CC3)n2)c(Cl)c1` . Observed Papp at 5 µM: 10.7

---

# experimental protocol: Volume of distribution at steady state in Sprague-Dawley rat at 0.5 mg/kg, iv
# Format: ADME, organism-based
# Parameters: dose 0.5 mg/kg, route intravenous
# assay context: in vivo, read-out: Vdss
reported metric: Vd (L/kg)
Report the figure in L/kg without appending any unit label.

Lab note: measured Vd of `Fc1ccc(-c2noc(C3CCN(c4cnc5ccc(Cl)cc5c4)CC3)n2)c(Cl)c1` was 0.365

---

# experimental protocol: Inhibition of CCR2b receptor
reported metric: IC50

Lab note: measured IC50 of `Fc1ccc(-c2noc(C3CCN(c4cnc5ccc(Cl)cc5c4)CC3)n2)c(Cl)c1` was > 50 µM

---

# experimental protocol: Clearance in Sprague-Dawley rat at 0.5 mg/kg, iv
# Assay type: ADME, organism-based
# Design: dose 0.5 mg/kg, route intravenous
# assay context: in vivo
reported metric: clearance
Answer by giving the amount and then stating its unit.

Lab note: measured clearance of `Fc1ccc(-c2noc(C3CCN(c4cnc5ccc(Cl)cc5c4)CC3)n2)c(Cl)c1` was 0.65 mL/min/kg

---

# experimental protocol: Solubility in 0.01 N HCl
# Assay type: physicochemical
reported metric: solubility

Lab note: measured solubility of `Fc1ccc(-c2noc(C3CCN(c4cnc5ccc(Cl)cc5c4)CC3)n2)c(Cl)c1` was < 1 µg/mL

---

# target or test system: UniProtKB P34972
# Sequence (P34972 whole entry): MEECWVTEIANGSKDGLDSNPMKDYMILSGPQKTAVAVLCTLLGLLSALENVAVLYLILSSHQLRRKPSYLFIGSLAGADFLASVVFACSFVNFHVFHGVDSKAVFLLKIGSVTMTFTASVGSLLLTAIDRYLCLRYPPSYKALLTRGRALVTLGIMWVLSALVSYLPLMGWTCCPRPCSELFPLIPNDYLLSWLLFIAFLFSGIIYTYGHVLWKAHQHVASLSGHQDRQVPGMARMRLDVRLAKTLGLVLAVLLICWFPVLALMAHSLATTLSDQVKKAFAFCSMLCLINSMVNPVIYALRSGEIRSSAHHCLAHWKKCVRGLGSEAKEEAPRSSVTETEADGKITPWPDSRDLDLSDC
# experimental protocol: Agonist activity at human CB2 receptor expressed in insect Sf9 cells assessed as effect on Eu-GTP binding
Rule: EC50 below 30 nM gives fulfilled, anything at or above gives not fulfilled.

Consider `Fc1ccc(-c2noc(C3CCN(c4cnc5c(c4)CCCC5)CC3)n2)c(Cl)c1` . Does its EC50 lie strictly below 30 nM?
fulfilled

Consider `CC1(C)CCCc2cc(N3CCC(c4nc(-c5ccc(F)cc5Cl)no4)CC3)cnc21` . Does its EC50 lie strictly below 30 nM?
not fulfilled

Consider `Fc1ccc(-c2noc(C3CCN(c4cnc5ccccc5c4)CC3)n2)c(Cl)c1` . Does its EC50 lie strictly below 30 nM?
not fulfilled

Consider `CC(C)(CCc1nc(-c2ccc(F)cc2Cl)no1)Nc1cnc2ccccc2c1` . Does its EC50 lie strictly below 30 nM?
not fulfilled

Consider `O=C(CCc1nc(-c2ccc(F)cc2Cl)no1)Nc1cnc2ccccc2c1` . Does its EC50 lie strictly below 30 nM?
fulfilled

Consider `Fc1ccc(-c2noc(C3CCN(c4cnc5ccc(OC(F)(F)F)cc5c4)CC3)n2)c(Cl)c1` . Does its EC50 lie strictly below 30 nM?
fulfilled

Consider `O=C(NCCc1nc(-c2ccc(F)cc2Cl)no1)c1cnc2ccccc2c1` . Does its EC50 lie strictly below 30 nM?
not fulfilled

Consider `Clc1ccc(-c2noc(C3CCN(c4cnc5ccccc5c4)CC3)n2)c(Cl)c1` . Does its EC50 lie strictly below 30 nM?
not fulfilled

Consider `Fc1ccccc1-c1noc(C2CCN(c3cnc4ccccc4c3)CC2)n1` . Does its EC50 lie strictly below 30 nM?
not fulfilled

Consider `c1ccc2ncc(N3CCC(c4nc(C5CCCCC5)no4)CC3)cc2c1` . Does its EC50 lie strictly below 30 nM?
fulfilled
